meta.source: paper PMC9482650

Molecular target: T1, TX1BP3, O14907
T1 sequence (O14907 10-122, limits assumed, looked up): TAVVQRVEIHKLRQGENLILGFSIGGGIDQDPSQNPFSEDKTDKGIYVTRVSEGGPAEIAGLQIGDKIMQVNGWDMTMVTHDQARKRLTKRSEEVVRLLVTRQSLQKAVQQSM
Experiment: holdup assay
Set-up: key: below the threshold = too weak to quantify, mostly under pKd 3.1 to 4
Details: plain residues with an end cap or a label only (N-terminal biotin on a linker: ado-ado)
READOUT_TYPE: pKd

>>> assay_result("SKSNFGSEPL [KIF17, Q9P2E2]")
5.05
>>> assay_result("VYPNAKVELV [PDLIM4_iso2, P50479;P50479-1]")
"below the threshold"
>>> assay_result("MLSKQSESAI [FLVCR1, Q9Y5Y0]")
4.1
>>> assay_result("SKENVQETQI [LRRC4B, Q9NT99]")
"below the threshold"
>>> assay_result("SARSRLSSNL [HCN2, Q9UL51]")
4.23
>>> assay_result("GQEEQVTTRL [TRPC5, Q9UL62]")
3.69
>>> assay_result("LPHGHSTTRV [NLGN4X, Q8N0W4]")
"below the threshold"
>>> assay_result("GNSVLKSTQF [SLC22A12, Q96S37]")
"below the threshold"
>>> assay_result("LGRSTPQSEV [DGKH, Q86XP1]")
4.03
>>> assay_result("KKAPTNEFYA [SDC4, P31431]")
3.85
>>> assay_result("VDSTVKVWTC [TRAF7, Q6Q0C0]")
"below the threshold"
>>> assay_result("PRISRSQSEL [CCDC134, Q9H6E4]")
3.52
>>> assay_result("VKPQVSESKL [ACOT8, O14734]")
"below the threshold"
>>> assay_result("AKPSRISTVV [IQSEC2, Q5JU85]")
3.76
>>> assay_result("SNAGNTATKA [NOSTRIN, Q8IVI9]")
"below the threshold"
>>> assay_result("DDEDRLVIEI [ZNF831, Q5JPB2]")
"below the threshold"
>>> assay_result("HSGYRLNDYV [CLDN14, O95500]")
4.24
>>> assay_result("NHSSSPETTA [TRMT13, Q9NUP7]")
3.87
>>> assay_result("RRRESYSTTV [EVI5, O60447]")
4.09
>>> assay_result("TASPAKETSF [SLC2A7, Q6PXP3]")
3.79
>>> assay_result("PEYLGLDVPV [ERBB2, P04626]")
4.19
>>> assay_result("SAAKVLTSMC [GHRHR, Q02643]")
3.54
>>> assay_result("TLPRKRMSSI [GPRC6A, Q5T6X5]")
"below the threshold"
>>> assay_result("TSSMRGMDAV [RSRC2, Q7L4I2]")
"below the threshold"
>>> assay_result("RRISSLESEV [GRIN2C, Q14957]")
5
>>> assay_result("KSGKQTMLVV [TRIM29, Q14134]")
3.88
>>> assay_result("YNNCLEILRV [DCAF7, P61962]")
"below the threshold"
>>> assay_result("CLREWCDAFL [BANF1, O75531]")
4.62
>>> assay_result("VNKSKLLTDV [KCNA1, Q09470]")
4.22
>>> assay_result("PDGQCTVTEV [RNF146, Q9NTX7]")
4.78
>>> assay_result("QSPANIYYKV [EFNB1, P52799]")
"below the threshold"
>>> assay_result("FNSYSLTGYV [CLDN2, P57739]")
4.3
